# assay_name: Intrinsic clearance in rat liver microsomes assessed per mg of protein
# Assay type: ADME
# condition_description: read-out: CLH
property_label: microsomal CLint (µL/min/mg)

The examples below pair each entry with its known result.
[[record]]
compound = "CCC(F)(F)Cc1c[nH]c2ccccc12"
property_label = "microsomal CLint"
numeric_result = 644

[[record]]
compound = "CC(F)(F)CCc1c[nH]c2ccccc12"
property_label = "microsomal CLint"
numeric_result = 584

[[record]]
compound = "CC(F)(F)Cc1c[nH]c2ccccc12"
property_label = "microsomal CLint"
numeric_result = 226


[a] FCC(F)CCc1c[nH]c2ccccc12 (stereo not drawn)
[b] FC(F)CCc1c[nH]c2ccccc12
[c] CCCc1c[nH]c2ccccc12
Order the records so the highest microsomal CLint appears first and the lowest last. # format: label list in the order the request specifies a, b, c

Values were extracted from ChEMBL document CHEMBL3632616.
